Each recorded value in this set is attributed to PubChem BioAssay (NCI).

System: HL-60(TB) leukemia
Assay: NCI-60 one-dose screen, 48 h (100 = growth as untreated, 0 = no growth, -100 = all killed)
Conditions: 10 µM unless noted
About 83,000 compounds went through this panel and 20% of them were active in at least one assay; those are over-represented in the sample as a whole.
# note: exactly 90% is not below, so it is not fulfilled; use fulfilled for growth strictly under it

Confirm or reject: growth of Cc1cc(O)cc(O)c1N=NC1=NCCS1 lies strictly below 90%
not fulfilled

Confirm or reject: growth of C=C1C(=O)O[C@H]2[C@H]1CC/C(COC(=O)/C=C\C(=O)NCc1ccc(Cn3c(=O)sn(CCCC)c3=O)cc1)=C\CC[C@@]1(C)O[C@@H]21 lies strictly below 90%
fulfilled

Confirm or reject: growth of Cc1cc(O)ccc1O lies strictly below 90%
fulfilled

Confirm or reject: growth of Cc1c(CN)cc(-c2ccc(Cl)cc2)n1-c1ccccc1 lies strictly below 90%
fulfilled

Confirm or reject: growth of C(=N/Nc1ncc(-c2cc3cc(-c4ccccc4)ccc3o2)s1)/c1cccs1 lies strictly below 90%
not fulfilled

Confirm or reject: growth of N#Cc1c(N)sc(=S)c2c1CCCC2 lies strictly below 90%
not fulfilled

Confirm or reject: growth of O=C(O)c1ccc(Nc2ncc3c(n2)-c2ccc(Cl)cc2C(c2c(F)cccc2F)=NC3)cc1 lies strictly below 90%
fulfilled

Confirm or reject: growth of CS(=O)(=O)Nc1cc(-c2ccc3ncnc(Nc4ccc5c(cnn5Cc5cccnc5)c4)c3c2)cnc1Cl lies strictly below 90%
fulfilled

Confirm or reject: growth of NC(N)=NC(N)=Nc1cc2ccccc2c2ccccc12 lies strictly below 90%
fulfilled

----------
I'd appreciate it if you could supply growth values for the items below.
System: HL-60(TB) leukemia
Assay: NCI-60 one-dose screen, 48 h (100 = growth as untreated, 0 = no growth, -100 = all killed)
Settings: 10 µM unless noted
Compounds without any hit were thinned out: in the full panel of roughly 83,000, 20% have a hit.
# number only, unit % dropped from output

Missing value: growth, HL-60(TB) leukemia, entry CCOC(=O)c1cc(C#N)n2ccc3ccccc3c12 . Fill in?
92.1

Missing value: growth, HL-60(TB) leukemia, entry Oc1c(CN2CCC(N3CCCCC3)CC2)cc(Cc2cc(CN3CCC(N4CCCCC4)CC3)c(O)c3ncccc23)c2cccnc12 . Fill in?
-6.31

Missing value: growth, HL-60(TB) leukemia, entry C=C(C)[C@@H]1CC[C@]2(C(=O)NC(C)=O)CC[C@]3(C)[C@H](CC[C@@H]4[C@@]5(C)CCCNC(C)(C)[C@@H]5CC[C@]43C)[C@@H]12 . Fill in?
-51.2

Missing value: growth, HL-60(TB) leukemia, entry Cc1nc(-c2ccc(Cl)cc2)ccc1NC(=O)Nc1cccc(C(F)(F)F)c1 . Fill in?
79.7

----------
System: MDA-MB-435 melanoma
Experiment: NCI-60 one-dose screen, 48 h (100 = growth as untreated, 0 = no growth, -100 = all killed)
Details: 10 µM unless noted
About 83,000 compounds went through this panel and 20% of them were active in at least one assay; those are over-represented in the sample as a whole.
Binary call on growth: t from 70% upward, f beneath that.

Answer whether growth of CC(=O)Nc1ccc(C=C2C(=O)NC(=O)NC2=O)cc1 is greater than or equal to 70%.
t

Answer whether growth of COc1cc(C2(C#N)CCN(C)CC2)cc(OC)c1OC is greater than or equal to 70%.
t

Answer whether growth of CCOc1ccc(C(O)CN(C)Cc2ccccc2)cc1Cl (centres undefined) is greater than or equal to 70%.
t

Answer whether growth of Nc1ccc(N)c2c1Oc1ccccc1O2 is greater than or equal to 70%.
t

Answer whether growth of C/C(=N/OC(=O)N(C)C)c1cc(Cl)ccc1Cl is greater than or equal to 70%.
t

Answer whether growth of CC(=O)[O][Hg][CH2]C1(C)COC(C)([CH2][Hg][O]C(C)=O)CO1 (centres undefined) is greater than or equal to 70%.
f

Answer whether growth of O=C(CCF)c1ccc(O)cc1 is greater than or equal to 70%.
t

Answer whether growth of O=C(O)c1[nH]c(=O)[nH]c(=O)c1F is greater than or equal to 70%.
t

Answer whether growth of CCC(C)/C=C(C)/C=C/C(=O)c1c(O)c(-c2ccc(O)cc2)c[nH]c1=O (centres undefined) is greater than or equal to 70%.
f

Answer whether growth of n1nc(-c2nonc2-c2nn[nH]n2)n[nH]1 is greater than or equal to 70%.
t

Answer whether growth of CN1CCN(C(=O)COc2ccc(/C=C3\CC4C5CC=C6CC(Cl)CCC6(C)C5CCC4(C)C3=O)cc2)CC1 (centres undefined) is greater than or equal to 70%.
f

Answer whether growth of COc1ccc(OC)c(/C=C(/C)[N+](=O)[O-])c1 is greater than or equal to 70%.
f

Answer whether growth of CC(/C=N/N=C(N)N)=N/N=C(N)N is greater than or equal to 70%.
t

Answer whether growth of CN(C)P1(N(C)C)=NP(N(C)C)(N(C)C)=NP(N(C)C)(N(C)C)=N1 is greater than or equal to 70%.
t

Answer whether growth of CCC[CH2][Sn]([CH2]CCC)([CH2]CCC)[O]C(=O)CC is greater than or equal to 70%.
f

Answer whether growth of O=C1NC(=O)C(CN2C(=O)C3(c4ccccc42)[C@H](Cl)C(=O)N3c2ccccc2)C(=O)N1 (some centres undefined) is greater than or equal to 70%.
t

Answer whether growth of Cc1cc(NC(=O)CCc2ccc(N3C(N)=NC(N)=NC3(C)C)cc2)ccc1S(=O)(=O)F is greater than or equal to 70%.
f

Answer whether growth of CC(=O)Nc1ccc(Cc2ccc(NC(C)=O)cc2)cc1 is greater than or equal to 70%.
t

Answer whether growth of C#CC1(O)CCC2(C)C(CCC3C4CCC(=O)C4(C)CCC32)C1 (centres undefined) is greater than or equal to 70%.
t

Answer whether growth of C=CCc1ccc(OC(=O)Cc2ccccc2)c(OC)c1 is greater than or equal to 70%.
t

Answer whether growth of COc1ccc(C2SCC(=O)Nc3c2c(C)nn3-c2nc3ccc(C)cc3s2)cc1O (centres undefined) is greater than or equal to 70%.
f

Answer whether growth of [O]=[Sn]([CH]1CCCCC1)[CH]1CCCCC1 is greater than or equal to 70%.
f

Answer whether growth of Oc1ccc2c3c1O[C@H]1c4[nH]c5ccccc5c4C[C@@]4(O)C(C2)N(CC2CC2)CC[C@]314 is greater than or equal to 70%.
t

Answer whether growth of COC(=O)C1CC2c3ccccc3C1c1ccccc12 (centres undefined) is greater than or equal to 70%.
t
